experiment: chemical genetic growth profiling, strain panel (AID 1159580);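 note: tested at 20 µM; growth read once vehicle control cultures reached saturation at 30 °C; 1 = growth at the plate median or of vehicle wells; lower values mean less growth of the strain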; details: S. cerevisiae deletion strains, growth OD, locus YAL026C, strain drs2
The whole screen tested about 5,500 compounds, of which about 2,000 (36%) were called active. Roughly 18% stayed inconclusive and do not appear here. Cut-off read from the data, not from the text of the source: active = normalized growth mostly below about 0.91 (no sharp cut-off); inconclusive = no clear call, values can overlap the other calls; inactive = mostly above about 0.92. The list shows a part of the results.
Labels: active, inactive

>>> class_label("C=C(C)C1CC=C(CO)CC1 (stereo not given)")
"inactive"
>>> class_label("CO[C@H]1/C=C/O[C@@]2(C)Oc3c(C)c(O)c4c(O)c(c(/C=N/N5CCN(C)CC5)c(O)c4c3C2=O)NC(=O)/C(C)=C\\C=C\\C(C)[C@H](O)[C@@H](C)[C@@H](O)[C@@H](C)[C@@H](OC(C)=O)[C@@H]1C (stereo not given in full)")
"inactive"
>>> class_label("CC(C)NCC(O)c1ccc2ccccc2c1 (stereo not given)")
"inactive"
>>> class_label("Cc1ccsc1/C=C/C1=NCCCN1C")
"inactive"
>>> class_label("O[N+]1=CC=CCC1=S.On1ccccc1=S.[Zn]")
"active"

----------
experiment: chemical genetic growth profiling, strain panel (AID 1159580);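 note: tested at 20 µM; growth read once vehicle control cultures reached saturation at 30 °C; 1 = growth at the plate median or of vehicle wells; lower values mean less growth of the strain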; settings: S. cerevisiae deletion strains, growth OD, locus YKL068W, stronger effect = lower value
Among all 5,500 compounds or so, about 2,000 (36%) were called active. Another 18% or so got no clear call; they are omitted. The list shows a part of the results.
Recorded normalized growth by entry
recorded.metric: normalized growth

>>> measured("CN(C)CCOC(C)(c1ccccc1)c1ccccn1 (centres undefined)")
0.983
>>> measured("CN/C(=C\\[N+](=O)[O-])NCCSCc1ccc(CN(C)C)o1")
0.999
>>> measured("COC(C)(C)CCC[C@H](C)C/C=C/C(C)=C/C(=O)OC(C)C")
1.01
>>> measured("COc1cc(C(=O)NCc2ccc(OCCN(C)C)cc2)cc(OC)c1OC")
0.978
>>> measured("CC(=O)NCCCCCC(=O)O")
0.994
>>> measured("c1ccc2c3c([nH]c2c1)CNCC3")
1
>>> measured("CC(=O)OCC1(C)CCC2(C)CCC3(C)C4=CCc5c(cc(OC(C)=O)c(OC(C)=O)c5C)C4(C)CCC3(C)C2C1 (centres undefined)")
1.01
>>> measured("CO[C@H]1/C=C/O[C@@]2(C)Oc3c(C)c(O)c4c(O)c(c(/C=N/N5CCN(C)CC5)c(O)c4c3C2=O)NC(=O)/C(C)=C\\C=C\\C(C)[C@H](O)[C@@H](C)[C@@H](O)[C@@H](C)[C@@H](OC(C)=O)[C@@H]1C (some centres undefined)")
1.01
>>> measured("CC(C)N(C(=O)SCC(Cl)=C(Cl)Cl)C(C)C")
1.01
>>> measured("NCC(CC(=O)O)c1ccc(Cl)s1 (centres undefined)")
0.989
>>> measured("CC(C)(C)NC[C@@H](O)COc1nsnc1N1CCOCC1")
0.989
>>> measured("NCCCC[C@H](N[C@@H](CCc1ccccc1)C(=O)O)C(=O)N1CCC[C@H]1C(=O)O")
0.99
>>> measured("CC(=O)O[C@H]1C[C@@H](OC(C)=O)C(C)(C)C2C[C@@H](OC(C)=O)[C@@]3(C)C4=CC(=O)O[C@@H](c5ccoc5)[C@]4(C)CCC3[C@]21C (some centres undefined)")
1.01
>>> measured("C/C=C/c1ccc2c(c1)OCO2")
1
>>> measured("Nc1ccc(C(=O)NCC(=O)O)cc1")
1
>>> measured("CC(=O)O[C@@H]1CC2C(C)(C)C(=O)CC[C@]2(C)C2CC[C@]3(C)C(=CC(=O)O[C@H]3c3ccoc3)[C@@]21C (some centres undefined)")
0.991
>>> measured("C[n+]1cccc(C(=O)[O-])c1")
1.01
>>> measured("CC(=O)Nc1ccc(S(=O)(=O)Nc2ccc([N+](=O)[O-])cc2)cc1")
1
>>> measured("CCCCC1=NC2(CCCC2)C(=O)N1Cc1ccc(-c2ccccc2-c2nn[nH]n2)cc1")
0.98

The measured values listed here are drawn from PubChem BioAssay AID1159580.
